system: human ATXN3-Q75-GFP SH-SY5Y cells; experiment: MTT compound cytotoxicity assay; format: cell-based; conditions: 0.1–100 μM compound, viability analyzed the next day, n = 3
Please respond with reported IC50 for every item in the list.

So what's the measured IC50 for this one? CC(=O)/C(=C\c1ccccc1[N+](=O)[O-])Cc1c(C)[nH]c2ccccc12
> 100 µM

# repeat for CC(=O)/C(=C\c1ccccc1[N+](=O)[O-])Cc1c[nH]c2ccccc12
> 100 µM

* * *

Please respond with reported IC50 at 1 day for every item in the list.
assay: MTT compound cytotoxicity assay; format: cell-based, human; settings: human, ATXN3-Q75-GFP SH-SY5Y cells, 0.1–100 μM compound, viability analyzed the next day, n = 3
Write the value in µM as a bare number.

So what's the measured IC50 at 1 day for this one? CC(=O)/C(=C\c1ccccc1[N+](=O)[O-])Cc1c(C)[nH]c2ccccc12 [NC009-2]
124

# repeat for O=C(/C=C/c1ccco1)c1c(O)c2ccccc2oc1=O [LM-022]
102

# repeat for CCc1cccc2c(C/C(=C/c3ccccc3[N+](=O)[O-])C(C)=O)c[nH]c12 [NC009-6]
176

# repeat for CC(=O)/C(=C\c1ccccc1[N+](=O)[O-])Cc1c[nH]c2ccccc12 [NC009-1]
111
